Please go through the items and note down their inhibition in vivo at 0.5 mg/kg.
# System: prolactin
# Assay procedure: Hypoprolactinemic effect in rats, serum prolactin by RIA, sulpiride-treated (hyperprolactinemic) animals
# Test parameters: Rattus norvegicus, read-out: Prolactin Inhibition %, sulpiride 10 γ/kg + 0.5 mg/kg test substance
Your answer should be a plain number; it is taken to be in %.

Give the reported inhibition in vivo at 0.5 mg/kg for CCCCCCCCCCCCCCCC(O)C(CO)NC(=O)C1CC2c3cccc4[nH]cc(c34)CC2N(C)C1 (stereo not shown) [Product 15, Dihydrolysergyldihydrosphingosine amide] (system: prolactin).
44

For prolactin, provide inhibition in vivo at 0.5 mg/kg of CCCCCCCCCCCCCC=CC(O)C(COC1OC(CO)C(O)C(O)C1O)NC(=O)C1CC2c3cccc4[nH]cc(c34)CC2N(C)C1 (stereo not shown) [Product 16, Dihydrolysergylpsychosine amide] please.
37

For the record CCCCCCCCCCCCC/C=C/[C@@H](O)[C@@H](N)CO , what value of inhibition in vivo at 0.5 mg/kg is listed for prolactin?
0

# value lookup — system prolactin, readout inhibition in vivo at 0.5 mg/kg, item CCCCCCCCCCCCCC=CC(O)C(CO)NC(=O)[C@@H]1C=C2c3cccc4[nH]cc(c34)C[C@H]2N(C)C1 (stereo partly shown) [Product 2.2, Lysergylsphingosine-amide]
32

Request body: readout inhibition in vivo at 0.5 mg/kg, system prolactin, query CN1C[C@H](C(=O)O)CC2c3cccc4[nH]cc(c34)C[C@H]21 (stereo partly shown) [dihydrolysergic acid] . Return the value.
0

Quick check: inhibition in vivo at 0.5 mg/kg on prolactin, item CCCCCCCCCCCCCC=CC(O)C(CO)NC(=O)C1CC2c3cccc4[nH]cc(c34)CC2N(C)C1 (stereo not shown) [Product 3, Dihydrolysergylsphingosine amide] ?
30

Notebook entry, prolactin assay: inhibition in vivo at 0.5 mg/kg of CN1C[C@H](C(=O)O)C=C2c3cccc4[nH]cc(c34)C[C@H]21 = ?
13

----------
I'd be grateful if you could share measured Prolactin for these entries.
# Tested on: prolactin
# Assay procedure: Hypoprolactinemic effect in rats, serum prolactin by RIA, sulpiride-treated (hyperprolactinemic) animals
# Test parameters: sulpiride 10 γ/kg + 5.0 mg/kg test substance
// units = ng/mL; emit number, no label

Can you share its Prolactin? I mean this compound: CCCCCCCCCCCCCCCC(O)C(CO)NC(=O)C1CC2c3cccc4[nH]cc(c34)CC2N(C)C1 (stereo not shown) [Product 15, Dihydrolysergyldihydrosphingosine amide]
39.0

Query: Prolactin; subject: CCCCCCCCCCCCCCCC(O)C(N)CO (stereo not shown) [dihydrosphingosine]
74.0

Find the recorded Prolactin belonging to CCCCCCCCCCCCCC=CC(O)C(COC1OC(CO)C(O)C(O)C1O)NC(=O)C1CC2c3cccc4[nH]cc(c34)CC2N(C)C1 (stereo not shown) [Product 16, Dihydrolysergylpsychosine amide] and report it.
39.0

What does the record list as Prolactin for CN1C[C@H](C(=O)O)C=C2c3cccc4[nH]cc(c34)C[C@H]21 [lysergic acid] ?
73.0

Look up Prolactin: CCCCCCCCCCCCCC=CC(O)C(CO)NC(=O)C1CC2c3cccc4[nH]cc(c34)CC2N(C)C1 (stereo not shown) [Product 3, Dihydrolysergylsphingosine amide]
31.2

# query: Prolactin of entry CCCCCCCCCCCCCC=CC(O)C(CO)NC(=O)[C@@H]1C=C2c3cccc4[nH]cc(c34)C[C@H]2N(C)C1 (stereo partly shown) [Product 2.2, Lysergylsphingosine-amide]
49.0

// returns reported Prolactin for input CCCCCCCCCCCCCC=CC(O)C(N)COC1OC(CO)C(O)C(O)C1O (stereo not shown) [psychosine, Psychosine or galactosylsphingosine]
61.0
